Measured growth inhibition by item
experimental protocol: NCI Yeast Anticancer Drug Screen. Data for the bub3 strain (AID 167)
condition context: S. cerevisiae bub3 mutant strain, at 50.0 µM, active compounds read high
About 79,000 compounds went through this panel and 15% of them were active in at least one assay; those are over-represented in the sample as a whole.

{"molecule": "O=C(O)CCSSCCCS(=O)O", "growth inhibition, %": 0.45}
{"molecule": "O=C(O)c1c2c(nc3ccccc13)CCC2", "growth inhibition, %": 12.2}
{"molecule": "C[S+]1CC2C3CC(C#N)C(C3)C2C1 (stereo unspecified)", "growth inhibition, %": -1.85}
{"molecule": "COC1(OC)C2(Cl)C(Cl)=C(Cl)C1(Cl)C1CCCCCC12 (stereo unspecified)", "growth inhibition, %": -8.4}
{"molecule": "COc1ccc(/C(Cl)=C(\\CN(C)C)c2ccc(OC)c(OC)c2)cc1OC", "growth inhibition, %": -5.85}
{"molecule": "CCN(CC)C1Oc2cc3c(cc2C(c2cc(OC)c(O)c(OC)c2)C1C)OCO3 (stereo unspecified)", "growth inhibition, %": -7.1}
{"molecule": "Cc1ccc(C(C)(CCC(=O)O)c2ccc(C)o2)o1", "growth inhibition, %": 8.5}
{"molecule": "O=C([O-])c1ccc2c(c1)-c1nc-2nc2[n-]c(nc3nc(nc4[n-]c(n1)c1ccc(C(=O)[O-])cc41)-c1ccc(C(=O)[O-])cc1-3)c1ccc(C(=O)[O-])cc21.[Gd+3].[K+]", "growth inhibition, %": 18}
{"molecule": "Oc1ccc2ccccc2c1C(c1ccccc1)N1CCOCC1 (stereo unspecified)", "growth inhibition, %": -12.4}
{"molecule": "CS(=O)(=O)OCCN(CCOS(C)(=O)=O)c1ccc(N=Nc2ccccc2C(=O)O)cc1", "growth inhibition, %": 19.1}
{"molecule": "O=C(/C=N/O)Nc1ccccc1", "growth inhibition, %": 7.25}

---

experimental protocol: NCI Yeast Anticancer Drug Screen. Data for the cln2 rad14 strain (AID 165);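 further: 0% = growth equal to vehicle treated cultures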
condition context: S. cerevisiae cln2 rad14 strain, at 50.0 µM, active compounds read high
The panel holds about 79,000 compounds, 15% with a hit somewhere; the sample as a whole holds those more often.

{"compound": "CCOCCOC(=O)CCCCCCCCC(=O)OCCOCC", "growth inhibition (%)": 37.9}
{"compound": "COc1ccc(CCN=Cc2ccc(Cl)cc2)cc1OC", "growth inhibition (%)": -1.2}
{"compound": "[N-]=[N+]=NC1CC(n2ccc(N)nc2=O)OC1CO (configuration not stated)", "growth inhibition (%)": -6.65}
{"compound": "COC1(OC)N=C(N)C2(C#N)C(C)=C3NCN(C)N=C3C12C#N (configuration not stated)", "growth inhibition (%)": -6.7}
{"compound": "CCOC(=O)C(C=Nc1ccc(S(N)(=O)=O)cc1)C(=O)OCC", "growth inhibition (%)": -22.4}
{"compound": "CCOc1ccc(-c2oc(/C=N/NS(=O)(=O)c3ccc(C)cc3)c([N+](=O)[O-])c2-c2ccc(OCC)cc2)cc1", "growth inhibition (%)": 62.2}
{"compound": "O=C1NC2(CCCC2)C(=O)N2CCCC12 (configuration not stated)", "growth inhibition (%)": -5.75}
{"compound": "COc1ccc(-c2nnc(-c3nsc4ccccc34)o2)cc1", "growth inhibition (%)": -2.5}
{"compound": "CCCC(CCC)(CCC)CCN(C)C", "growth inhibition (%)": -23.9}
{"compound": "CCN(CC)CCO/N=C1\\CC(c2ccc(OC)c(OC)c2)Oc2ccccc21 (configuration not stated)", "growth inhibition (%)": 26.6}
{"compound": "CCCCCCC(C)CC1=C(O)c2ccccc2C(=O)C1=O (configuration not stated)", "growth inhibition (%)": -38.4}
{"compound": "C=CCNC(=S)Nc1c(C)cc(C)cc1C", "growth inhibition (%)": -51.4}

---

experimental protocol: NCI Yeast Anticancer Drug Screen. Data for the mec2-1 strain (AID 157)
condition context: S. cerevisiae mec2-1 strain, at 50.0 µM, active compounds read high
About 79,000 compounds went through this panel and 15% of them were active in at least one assay; those are over-represented in the sample as a whole.
As shown below, each of these compounds has a reported growth inhibition value.
measurement kind: growth inhibition (%)

{"compound": "CCOC(=O)Cn1c(=O)n(C)c(=O)c2[nH]cnc21", "units": "%", "experimental result": -27.1}
{"compound": "CCCNCCC(=O)Nc1ccccc1C(=O)OCC", "units": "%", "experimental result": -18}
{"compound": "COC(=O)NN/C=C(\\C=Nc1ccccc1)[N+](=O)[O-]", "units": "%", "experimental result": 11.1}
{"compound": "CCOC(=O)c1ccc(N2C(=O)C(Cl)(c3ccccc3)C2c2ccco2)cc1 (stereo not drawn)", "units": "%", "experimental result": 9.85}
{"compound": "Cc1cc(Cl)nc2ccc([N+](=O)[O-])cc12", "units": "%", "experimental result": 6.3}
{"compound": "N#CC(/C(CCCC(=O)Nc1cccc([N+](=O)[O-])c1)=N/NC(=O)c1cc2ccccc2cc1O)c1ccccc1 (stereo not drawn)", "units": "%", "experimental result": 41.4}
{"compound": "C[Si](C)(OCCS(=O)(=O)O)C1(Cc2cccc3ccccc23)S(=O)(=O)OCCOS1(=O)=O", "units": "%", "experimental result": -9.55}
{"compound": "Cc1c(C(=O)CSc2nc3ccccc3c(=O)n2-c2ccccc2)c(=O)n(-c2ccccc2)n1C", "units": "%", "experimental result": 0.45}
{"compound": "CCC(CC)C(=O)OCCc1ccccc1", "units": "%", "experimental result": 3.05}
{"compound": "OCC(O)Cn1cnc2c(NO)ncnc21 (stereo not drawn)", "units": "%", "experimental result": -20.8}
{"compound": "C/C=C/C(=O)OCCCCCCCCCCCC", "units": "%", "experimental result": -39}
{"compound": "Cc1cc(-c2ccc(N=Nc3c(C)nn(-c4ccc(S(=O)(=O)O)cc4)c3O)c(C)c2)ccc1N=Nc1ccc(O)c(C(=O)O)c1", "units": "%", "experimental result": 12.4}
{"compound": "Cc1cc(=O)n2c(n1)sc1ccc3ccccc3c12", "units": "%", "experimental result": -11.8}
{"compound": "NC(=O)c1cnn(CCO)c1N", "units": "%", "experimental result": -3.35}
{"compound": "CNc1ccn(C2OC(CO)C(O)C2O)c(=O)n1 (stereo not drawn)", "units": "%", "experimental result": -7.5}
{"compound": "CCC(c1ccc(OCc2ccccc2)cc1)c1cc2c(cc1OCCO)OCO2 (stereo not drawn)", "units": "%", "experimental result": 57}
{"compound": "Clc1cccc2[nH]ccc12", "units": "%", "experimental result": -3.1}
{"compound": "Cc1cc2c(=O)c3ccccc3[nH]c2c(C(=O)O)c1C", "units": "%", "experimental result": 0.85}
{"compound": "COCCCNc1ncnc2c1cnn2-c1ccc(Cl)cc1", "units": "%", "experimental result": -4.75}
{"compound": "[N-]=[N+]=NCC1OCC(O)C(OCc2ccccc2)C1OCc1ccccc1 (stereo not drawn)", "units": "%", "experimental result": -10.4}
{"compound": "COc1cc([C@@H]2c3cc4c(cc3[C@H](OC3OC5COC(C(C)C)OC5C(O)C3O)C3COC(=O)[C@@H]32)OCO4)cc(OC)c1OC (stereo partly drawn)", "units": "%", "experimental result": 46.7}
{"compound": "Cc1nc2cc(Cl)ccc2s1", "units": "%", "experimental result": 2.8}
{"compound": "CSc1ccc(NC(=O)Nc2cccc(C(C)=O)c2)cc1", "units": "%", "experimental result": 31.2}

---

Catalogue of compounds with associated growth inhibition
experimental protocol: NCI Yeast Anticancer Drug Screen. Data for the sgs1 mgt1 strain (AID 161);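 further: 0% = growth of cultures given vehicle only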
condition context: S. cerevisiae sgs1 mgt1 strain, at 50.0 µM, active compounds read high
Compounds without any hit were thinned out: in the full panel of roughly 79,000, 15% have a hit.
measurement kind: growth inhibition (%)

{"compound": "CC(=O)n1[nH]c(=O)n(-c2ccc(Cl)cc2)c1=O", "measurement kind": "growth inhibition", "units": "%", "experimental result": -30.1}
{"compound": "CCC(C(=O)O)c1ccc(OCc2ccccc2)cc1 (configuration not stated)", "measurement kind": "growth inhibition", "units": "%", "experimental result": -10.2}
{"compound": "N#Cc1c[nH]n2ccnc12", "measurement kind": "growth inhibition", "units": "%", "experimental result": -23.4}
{"compound": "CC1(C)OC2(CC1C1(C)C=CC(=O)O1)CC1(O)C(CCC34CC13C(=O)OC4c1ccoc1)O2 (configuration not stated)", "measurement kind": "growth inhibition", "units": "%", "experimental result": -10.3}
{"compound": "COc1cc(C(O)C(CO)Oc2c(OC)cc(C3OCC4C(c5cc(OC)c(O)c(OC)c5)OCC34)cc2OC)ccc1O (configuration not stated)", "measurement kind": "growth inhibition", "units": "%", "experimental result": -2.05}
{"compound": "CC(=O)SC1CC2CCC1C2 (configuration not stated)", "measurement kind": "growth inhibition", "units": "%", "experimental result": -17.4}
{"compound": "CC(C)CCCC(C)C1CCC2C3CCC4CC5(C)C(CC4(C)C3CCC12C)C(=O)C5(Cl)Cl (configuration not stated)", "measurement kind": "growth inhibition", "units": "%", "experimental result": -22.4}
{"compound": "COC(=O)C(S)(NC(C)=O)C(C)C (configuration not stated)", "measurement kind": "growth inhibition", "units": "%", "experimental result": -1.25}
{"compound": "CCOc1cc(/C=N/NC(=O)N(c2ccccc2)c2ccccc2)ccc1O", "measurement kind": "growth inhibition", "units": "%", "experimental result": 25.6}
{"compound": "Cc1ccc(C(=O)c2cc3c([nH]c4ccccc43)c(C)c2C(=O)O)cc1", "measurement kind": "growth inhibition", "units": "%", "experimental result": -5.1}
{"compound": "Cn1nc2ccc3nccc(NCCNCCO)c3c2n1", "measurement kind": "growth inhibition", "units": "%", "experimental result": -4.65}
{"compound": "COc1cc2nccnc2c(N)c1OC", "measurement kind": "growth inhibition", "units": "%", "experimental result": 7.75}

This collection of values is drawn from PubChem BioAssay (NCI).
